Measured protein stability index, listed per entry.
experiment: protein stability index of a GFP-peptide fusion (GPS, HEK-293T) (PSI 1-6); higher = more stable; settings: treatment: MLN4924 1 uM, 8 h; c terminus: a fixed tail appended;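 also: 24-mer peptide tiles fused after GFP, lentivirally expressed, FACS-sorted into six equal bins by GFP/DsRed ratio, decoded by Illumina sequencing, PSI is the read-weighted mean bin number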
Field format: numeric only.

Q: Query: protein stability index; subject: GPRFGPRNDKIKHVQNQVDEVIDV [VAMP4]
A: 4.63

Q: Query: protein stability index; subject: ERRQTLNLISLLALRVLAEQNIIP [TENT5C]
A: 2.15

Q: Query: protein stability index; subject: CAGSTALQEPGEPQGPPASPSCPE [PXN]
A: 5.48

Q: Query: protein stability index; subject: FWDFAQGPLLDSLYWTKWYNNQSL [PKD2L1]
A: 2.76

###

experiment: protein stability index of a GFP-peptide fusion (GPS, HEK-293T) (PSI 1-6); higher = more stable; conditions: treatment: MLN4924 1 uM, 8 h; c terminus: a fixed tail appended
Measured protein stability index, listed per entry.

Sample records with protein stability index:
LGRMGKHEQALFIYVHILKDTRMA [VPS39]: 2.98
LVADLLYWKDTRTSGVVFTGLMVS [RTN2]: 3.03
LAMKIKVGSDDLERIEARLATLEG [PSD2]: 2.85
MENLLQATKSHVDKVIMKLGKTNA [DYNC2LI1]: 3.34
YPNYEFISDNSISWSAGLHNRYTE [FUT8]: 2.72
KKVHKGTVPKNDADDESETPEELE [GLT8D2]: 5.65

Q: Query: protein stability index; subject: KWNTQTKARSYSYPHCTGISQQDP [ZC2HC1C]
A: 3.63

Q: Query: protein stability index; subject: KREACHCEEVKMTVASEAKIQLSD [FAN1]
A: 5

###

experiment: protein stability index of a GFP-peptide fusion (GPS, HEK-293T) (PSI 1-6); higher = more stable; details: treatment: DMSO; c terminus: a fixed tail appended
Measured protein stability index, listed per entry.
Field format: numeric only.

Sample records with protein stability index:
FRAGMKKEAVQNERDRISTRRSSY [HNF4A]: 4.2
HTLILMFIWFVCSLVYYGLTLSAG [SLC22A15]: 2.42
QQVKKLEKALKKNVKLQELINHKK [CEP70]: 2.6

Now examine the next entry.
Q: Query: protein stability index; subject: IVDFLTHHAQTSKTERINALELLG [FEM1C]
A: 2.09

###

experiment: protein stability index of a GFP-peptide fusion (GPS, HEK-293T) (PSI 1-6); higher = more stable; conditions: treatment: DMSO; c terminus: a fixed tail appended
Measured protein stability index, listed per entry.

Sample records with protein stability index:
QCLDKTNESALVKEKELSIELANI [MTUS2]: 4.79
CLFSERDAAGAPRDASDPLAGAAL [SMAD6]: 4
MIIEHKIVIADVKLVADFQRYILY [ZNF277]: 3.58

Q: Query: protein stability index; subject: RRAGEGRRSPRPDHPGTPPHKTFR [WEE1]
A: 4.78

Q: Query: protein stability index; subject: CATDTKNVQFVFDAVTDVIIKNNL [GNAI1]
A: 2

Q: Query: protein stability index; subject: KVALEPQLWELGKVLRKAGLSAGY [LPCAT4]
A: 2.27

###

Measured protein stability index, listed per entry.
experiment: protein stability index of a GFP-peptide fusion (GPS, HEK-293T) (PSI 1-6); higher = more stable; conditions: treatment: MLN4924 1 uM, 8 h; c terminus: a fixed tail appended
Field format: numeric only.

SNYFSMDSMEGKRSPYAGLQLGAA [TRIM29]: 2.99
SRQDKPLSPAGSSQEAADTPDTRH [YJU2B]: 5.46

Q: Query: protein stability index; subject: EAWRLVEEGIVSPSDLDLVMSEGL [CRYL1]
A: 3.9

Q: Query: protein stability index; subject: TKLEERSRVKCDQYWPSRGTETHG [PTPRD]
A: 3.71

Q: Query: protein stability index; subject: MNQTCCPQYTIRCRPLQFQPSKSH [ATE1]
A: 2.1

Q: Query: protein stability index; subject: SPEVLTPQLSPGSGTPQAGTPSPS [RTN2]
A: 5.45

Q: Query: protein stability index; subject: ELKRRVAEELALEQAKKESEDQKR [CHCHD3]
A: 4.37

Q: Query: protein stability index; subject: TPLLAASVTGHTNIVEYLIQEQPG [FEM1A]
A: 3.67

Q: Query: protein stability index; subject: TGTYQRAILQNHTDFKDKIVLDVG [CARM1]
A: 3.35

Q: Query: protein stability index; subject: GMRDADYIAAFLHVLLPVALEFQP [HDAC6]
A: 2.96

Q: Query: protein stability index; subject: KAGIEQEGYWLPGDEISIKKKNTN [ZMYND11]
A: 4.62

Entry source: the supplement of paper PMC10567573
